// data source = patent US6174888A

# assayedSystem: Calf spleen PNP (Bos taurus)
# Sequence (P55859 whole entry): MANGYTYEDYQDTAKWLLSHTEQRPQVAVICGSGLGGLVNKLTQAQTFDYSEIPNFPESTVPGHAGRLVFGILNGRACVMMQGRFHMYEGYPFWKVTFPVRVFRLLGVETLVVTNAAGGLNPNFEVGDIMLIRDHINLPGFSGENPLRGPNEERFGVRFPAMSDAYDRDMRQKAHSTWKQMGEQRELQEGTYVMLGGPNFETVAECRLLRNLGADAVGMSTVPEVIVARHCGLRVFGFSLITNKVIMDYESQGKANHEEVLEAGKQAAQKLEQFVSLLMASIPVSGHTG
propertyMeasured: IC50

>>> reportedresult("Nc1nc2c([C@@H](CO)c3ccccc3F)c[nH]c2c(=O)[nH]1")
"~10 nM"
>>> reportedresult("Nc1nc2c([C@@H](CO)c3ccccc3)c[nH]c2c(=O)[nH]1")
"~10 nM"
